- Test system: Human peripheral blood mononuclear cells
- method: Human Concanavalin-A Proliferation Assay (Con HU Assay)
- Format: cell-based
- condition-label: Homo sapiens, PBMC, concanavalin-A stimulated human PBMC, tritiated thymidine
measurement-name: IC50 (nM)
Express your answer in nM, writing the number without its unit.

Use these answered entries as a reference point.
| compound | IC50 / nM |
| --- | --- |
| COc1ccc(C(=O)Nc2ccc(-n3nc(C(F)(F)F)cc3C(F)(F)F)cc2)cc1Br [Example 221] | 411 |
| O=C(Nc1ccc(-n2nc(C(F)(F)F)cc2C(F)(F)F)cc1)c1cccnc1Cl [Example 150] | 244 |
| CC(C)=CC(=O)Nc1ccc(-n2nc(C(F)(F)F)cc2C(F)(F)F)cc1 [Example 102] | 503 |
| O=C(Nc1c(F)cccc1F)c1ccc(-n2nc(C(F)(F)F)cc2C(F)(F)F)cc1 [Example 191] | 116 |
| COC1CCCC(C(=O)Nc2ccc(-n3nc(C(F)(F)F)cc3C(F)(F)F)cc2)C1 (stereo not shown) [Example 11] | 376 |

Exercise: Can you share its IC50? I mean this compound: O=C(Nc1ccc(-n2nc(C(F)(F)F)cc2C(F)(F)F)cc1)c1ccc2c(c1)OCO2 [Example 148]
Key: 529

Exercise: Can you share its IC50? I mean this compound: O=C(Nc1ccc(-n2nc(-c3cccnc3)cc2C(F)F)cc1)c1ccncc1F [Example 329]
Key: 303

Exercise: Can you share its IC50? I mean this compound: N#Cc1cc(C(F)(F)F)nn1-c1ccc(NC(=O)c2ccccc2Cl)cc1 [Example 350]
Key: 240

Exercise: Can you share its IC50? I mean this compound: Cn1ccc(-c2cc(C(F)(F)F)nn2-c2ccc(NC(=O)c3ccncc3F)cc2)c1 [Example 344]
Key: 251

Exercise: Can you share its IC50? I mean this compound: COC(=O)c1cc(NC(=O)c2ccccc2F)ccc1-n1nc(C(F)(F)F)cc1C(F)(F)F [Example 293]
Key: 409

====

- Test system: Human peripheral blood mononuclear cells
- method: Human Concanavalin-A Proliferation Assay (Con HU Assay)
- Format: cell-based
- condition-label: Homo sapiens, PBMC, concanavalin-A stimulated human PBMC, tritiated thymidine
Consider the following molecules and their measured pIC50 readings.
Hey, just a heads up that pIC50 is the negative log base 10 of the concentration in molar.

Exercise: Can you share its pIC50? I mean this molecule: `CSCCC(=O)Nc1ccc(-n2nc(C(F)(F)F)cc2C(F)(F)F)cc1`
Key: 5.74

Exercise: Can you share its pIC50? I mean this molecule: `O=C(Nc1ccc(-n2nc(C(F)(F)F)cc2C(F)(F)F)cc1)c1ccccc1`
Key: 6.17

Exercise: Can you share its pIC50? I mean this molecule: `Cn1cc(C(=O)Nc2ccc(-n3nc(C(F)(F)F)cc3C(F)(F)F)cc2)cn1`
Key: 5.42

Exercise: Can you share its pIC50? I mean this molecule: `O=C(Nc1ccc(-n2nc(C(F)(F)F)cc2C(F)(F)F)cc1)c1cc(F)cc(F)c1F`
Key: 7.60

====

- Test system: Human peripheral blood mononuclear cells
- method: Human Concanavalin-A Proliferation Assay (Con HU Assay)
- Assay type: cell-based
- condition-label: Homo sapiens, PBMC, concanavalin-A stimulated human PBMC, tritiated thymidine
measurement-name: pIC50
Hey, just a heads up that pIC50 is the negative log base 10 of the concentration in molar.

Use these answered entries as a reference point.
| compound | measured-on | pIC50 |
| --- | --- | --- |
| CCCCCCOc1ccc(C(=O)Nc2ccc(-n3nc(C(F)(F)F)cc3C(F)(F)F)cc2)cc1 | Human peripheral blood mononuclear cells | 4.64 |
| CC(C)(C)OC(=O)N1CCC(C(=O)Nc2ccc(-n3nc(C(F)(F)F)cc3C(F)(F)F)cc2)CC1 | Human peripheral blood mononuclear cells | 6.31 |

Let us move to another entry and its pIC50.
Exercise: Kindly state the measured pIC50 obtained for `O=C(Nc1ccc(-n2nc(C(F)(F)F)cc2C(F)(F)F)cn1)c1ccccc1F` with Human peripheral blood mononuclear cells.
Key: 6.60

====

measurement-name: melting point

Use these answered entries as a reference point.
| molecular-string | melting point |
| --- | --- |
| O=C(Nc1ccc(-n2nc(C(F)(F)F)cc2C(F)(F)F)cc1)c1ccco1 | 179 to 182 °C |
| O=C(Cc1ccc(Cl)cc1)Nc1cccc(-n2nc(C(F)(F)F)cc2C(F)(F)F)c1 | 209 to 211 °C |

Exercise: Can you share its melting point? I mean this compound: `COc1cc(C(F)(F)F)nn1-c1ccc(NC(=O)c2ccncc2F)cc1`
Key: 160 to 161 °C

Exercise: Can you share its melting point? I mean this compound: `O=C(Cc1ccc(Cl)cc1)Nc1ccc(-n2nc(C(F)(F)F)cc2C(F)(F)F)cc1`
Key: 122 to 124 °C

Exercise: Can you share its melting point? I mean this compound: `O=C(Nc1ccc(-n2nc(C(F)(F)F)cc2C(F)(F)F)cc1)c1c(F)cccc1Cl`
Key: 165 to 167 °C

====

- Test system: Human peripheral blood mononuclear cells
- method: Human Concanavalin-A Proliferation Assay (Con HU Assay)
- Type: cell-based
- condition-label: Homo sapiens, PBMC, 72 h, concentration 10 μm (in parentheses in the cell); concanavalin-A stimulated human PBMC, 3 days; read-out: % Inhibition of proliferation (at concentrations of 1,10, or 100 μm)
Consider the following compounds and their measured inhibition at 10 µM readings.
Express your answer in %, writing the number without its unit.

Use these answered entries as a reference point.
| compound | measurement-name | recorded-value |
| --- | --- | --- |
| CS(=O)(=O)c1cccc(C(=O)Nc2ccc(-n3nc(C(F)(F)F)cc3C(F)(F)F)cc2)c1 [Example 126] | inhibition at 10 µM | 79 |
| O=C(Nc1ccc(-n2nc(C(F)(F)F)cc2C(F)(F)F)cc1)c1ccccc1I [Example 110] | inhibition at 10 µM | 99 |
| O=C(Nc1ccc(-n2nc(C(F)(F)F)cc2C(F)(F)F)cc1)c1ccc(F)cc1Cl [Example 206] | inhibition at 10 µM | 100 |

Exercise: Kindly state the measured inhibition at 10 µM obtained for O=C(Nc1ccc(-n2nc(C(F)(F)F)cc2C(F)(F)F)cc1)c1ccc(F)c(Cl)c1 [Example 210] with Human peripheral blood mononuclear cells.
Key: 100

Exercise: Kindly state the measured inhibition at 10 µM obtained for NC(=O)c1ccc(C(=O)Nc2ccc(-n3nc(C(F)(F)F)cc3C(F)(F)F)cc2)cc1 [Example 133] with Human peripheral blood mononuclear cells.
Key: 97

Exercise: Kindly state the measured inhibition at 10 µM obtained for O=C(Nc1ccc(-n2nc(C(F)(F)F)cc2C(F)(F)F)cc1)c1cc(F)c(F)cc1F [Example 228] with Human peripheral blood mononuclear cells.
Key: 99

Exercise: Kindly state the measured inhibition at 10 µM obtained for Cc1ccsc1C(=O)Nc1ccc(-n2nc(C(F)(F)F)cc2C(F)(F)F)cc1 [Example 162] with Human peripheral blood mononuclear cells.
Key: 100

Exercise: Kindly state the measured inhibition at 10 µM obtained for CC(=O)c1ccc(C(=O)Nc2ccc(-n3nc(C(F)(F)F)cc3C(F)(F)F)cc2)cc1 [Example 119] with Human peripheral blood mononuclear cells.
Key: 100

Exercise: Kindly state the measured inhibition at 10 µM obtained for FC(F)(F)c1cc(C(F)(F)F)n(-c2ccc(/C=C/c3ccccc3Cl)cc2)n1 [Example 154] with Human peripheral blood mononuclear cells.
Key: 52

Exercise: Kindly state the measured inhibition at 10 µM obtained for COC(=O)c1cc(NC(=O)c2cc(Br)ccc2Cl)ccc1-n1nc(C(F)(F)F)cc1C(F)(F)F [Example 274] with Human peripheral blood mononuclear cells.
Key: 100

Exercise: Kindly state the measured inhibition at 10 µM obtained for O=C(Nc1ccc(-n2nc(C(F)(F)F)cc2C(F)(F)F)cc1)c1csc([N+](=O)[O-])c1 [Example 257] with Human peripheral blood mononuclear cells.
Key: 100

====

Consider the following compounds and their measured melting point readings.

Use these answered entries as a reference point.
| compound | melting point |
| --- | --- |
| Cc1nc(C)n(-c2ccc(NC(=O)c3c(C)noc3C)cc2)n1 [Example 189] | 170 to 171 °C |
| COc1cc(C(=O)Nc2ccc(-n3nc(C(F)(F)F)cc3C(F)(F)F)cc2)cs1 [Example 259] | 213 to 214 °C |
| CC(C)(C)OC(=O)NCCCCCCC(=O)Nc1ccc(-n2nc(C(F)(F)F)cc2C(F)(F)F)cc1 [Example 64] | 86 to 88 °C |
| O=C(Nc1ccc(-n2nc(C(F)(F)F)cc2C(F)(F)F)cc1)c1ccc(Br)cc1 [Example 85] | 205 to 207 °C |
| N#Cc1cccc(C(=O)Nc2ccc(-n3nc(C(F)(F)F)cc3C(F)(F)F)cc2)c1 [Example 137] | 162 to 163 °C |
| CCCCCCC(=O)Nc1ccc(-n2nc(C(F)(F)F)cc2C(F)(F)F)cc1 [Example 56] | 88 to 90 °C |

Exercise: Can you share its melting point? I mean this compound: CC(C)=CC(=O)Nc1ccc(-n2nc(C(F)(F)F)cc2C(F)(F)F)cc1 [Example 102]
Key: 150 to 152 °C

Exercise: Can you share its melting point? I mean this compound: N#Cc1cc(C(F)(F)F)nn1-c1ccc(NC(=O)c2ccncc2)cc1 [Example 303]
Key: 145 to 146 °C

Exercise: Can you share its melting point? I mean this compound: O=C(Nc1ccc(-n2nc(C(F)(F)F)cc2C(F)(F)F)cc1)c1ccccc1[N+](=O)[O-] [Example 136]
Key: 174 to 176 °C

Exercise: Can you share its melting point? I mean this compound: COC(=O)c1ccc(C(=O)Nc2ccc(-n3nc(C(F)(F)F)cc3C(F)(F)F)cc2)cc1 [Example 142]
Key: 195 to 196 °C

Exercise: Can you share its melting point? I mean this compound: O=C(Nc1ccccc1Cl)c1ccc(-n2nc(C(F)(F)F)cc2C(F)(F)F)cc1 [Example 185]
Key: 162 to 164 °C

Exercise: Can you share its melting point? I mean this compound: CC(C)(C)OC(=O)N1CCCC1C(=O)Nc1ccc(-n2nc(C(F)(F)F)cc2C(F)(F)F)cc1 (stereo not shown) [Example 246]
Key: 70 to 72 °C

Exercise: Can you share its melting point? I mean this compound: O=C(Nc1ccc(-n2nc(C(F)(F)F)cc2C(F)(F)F)cc1)c1ccno1 [Example 240]
Key: 202 to 204 °C

Exercise: Can you share its melting point? I mean this compound: CC1CC1C(=O)Nc1ccc(-n2nc(C(F)(F)F)cc2C(F)(F)F)cc1 (stereo not shown) [Example 7]
Key: 172 to 173 °C

Exercise: Can you share its melting point? I mean this compound: N#Cc1cccc(NC(=O)c2ccc(-n3nc(C(F)(F)F)cc3C(F)(F)F)cc2)c1 [Example 186]
Key: 195 to 196 °C

Exercise: Can you share its melting point? I mean this compound: O=C(Nc1ccc(-n2nc(C(F)(F)F)cc2C(F)(F)F)cc1)c1ccc([N+](=O)[O-])cc1 [Example 93]
Key: 185 to 188 °C

Exercise: Can you share its melting point? I mean this compound: N#Cc1cccc(NC(=O)Nc2ccc(-n3nc(C(F)(F)F)cc3C(F)(F)F)cc2)c1 [Example 16]
Key: 204 to 205 °C

Exercise: Can you share its melting point? I mean this compound: Cc1nnsc1C(=O)Nc1ccc(-n2nc(C(F)(F)F)cc2O)cc1 [Example 288]
Key: 177 to 179 °C

Exercise: Can you share its melting point? I mean this compound: Cc1ccoc1C(=O)Nc1ccc(-n2nc(C(F)(F)F)cc2C(F)(F)F)cc1 [Example 252]
Key: 119 to 120 °C

Exercise: Can you share its melting point? I mean this compound: NC(=O)c1ccc(C(=O)Nc2ccc(-n3nc(C(F)(F)F)cc3C(F)(F)F)cc2)cc1 [Example 133]
Key: 290 to 291 °C

Exercise: Can you share its melting point? I mean this compound: O=C(Nc1ccc(-n2nc(C(F)(F)F)cc2C(F)(F)F)cc1)c1ccc[nH]1 [Example 166]
Key: > 240 °C
